Test system: A549
Test: NCI tumour cell line growth inhibition, 48 h
Activity calls are given as the source filed them. Rule as the data show it: active = GI50 up to about 1.1 µM and inactive = higher. Starred links: 1 amine or outer side, 2 acyl side, 3 side chain; linkers in the order of their positions; H or OH if unused. Positions of bridges follow the written chain, without caps; N, C: chain ends. Non-standard residues stand in square brackets, D forms with d. Residues, ends and D or L forms follow the SMILES beside them. Peptide text beside a SMILES is read from it. * marks the point of attachment. ξ: configuration not given here. X37 = CC[C@H](C)[C@@H](N[*:1])[C@@H](O)CC(=O)O[C@H](C(=O)[C@H](C)C(=O)[*:2])C(C)C; NMeY = CN[C@@H](Cc1ccc(O)cc1)C(=O)O; dNMeL = CN[C@H](CC(C)C)C(=O)O; ξΔPro = O=C(O)C1C=CCN1; OSu = O=C1CCC(=O)N1O*
Classes to choose from: t (active), f (inactive)

Qu. Per the records of this test, what outcome belongs to CC(C)=CC(C)C(C(O)CCC1(c2ccoc2)OCCO1)S(=O)(=O)c1ccccc1 (stereo not given) ?
Ans. f

Qu. Per the records of this test, what outcome belongs to `CC(C)(C)CNC(=O)NCn1cc(-c2ccccc2)nn1` ?
Ans. f

Qu. Per the records of this test, what outcome belongs to `O=C1[C@@H]2[C@@H](c3ccccc3)[C@]2(Cl)C(=O)[C@H]2[C@H](c3ccccc3)[C@@]12Cl` ?
Ans. f

Qu. Per the records of this test, what outcome belongs to `O=C(/C=C/C=C/c1ccccc1)c1ccccc1` ?
Ans. f

Qu. Per the records of this test, what outcome belongs to CC#CC#C/C=C1\C=CC2(OC=CC2O)O1 (stereo not given) ?
Ans. f

Qu. Per the records of this test, what outcome belongs to `COc1cc(O)c(Cc2ccccc2O)c(O)c1C(=O)CCc1ccccc1` ?
Ans. f

Qu. Per the records of this test, what outcome belongs to `COc1cc2ccnc3c2c(c1OC)-c1coc(SC)c1-3` ?
Ans. f

Qu. Per the records of this test, what outcome belongs to `Oc1cc(CN2CCOCCOCCOCCOCC2)c(O)cc1CN1CCOCCOCCOCCOCC1` ?
Ans. f

Qu. Per the records of this test, what outcome belongs to NCCCCC(NC(=O)C(N)Cc1ccc(O)cc1)C(=O)NC(CCCCN)C(=O)NC(CCCCN)C(=O)ON1C(=O)CCC1=O (stereo not given) (H-YKKK-OSu; configuration not given here) ?
Ans. f

Qu. Per the records of this test, what outcome belongs to CC[C@H](C)[C@H]1NC(=O)[C@@H](NC(=O)[C@@H](CC(C)C)N(C)C(=O)C2C=CCN2)[C@@H](C)OC(=O)[C@H](Cc2ccc(OC)cc2)N(C)C(=O)[C@@H]2CCCN2C(=O)[C@H](CC(C)C)NC(=O)[C@@H](C)C(=O)[C@H](C(C)C)OC(=O)C[C@@H]1O (stereo not given in full) (H-[ξΔPro][dNMeL]T[X37]LP[NMeY](Me); ester 3-C) ?
Ans. t

Numbers sourced from ChEMBL document CHEMBL1201862.
